# maps each entry to its z-score
experiment: modulators of S6 phosphorylation in cells, primary screen, cell-based, A549, cytoblot, luminescence, serum-stimulated (AID 1158); conditions: A549 phospho-S6 cytoblot, 5 h, higher = more signal;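 further: serum-stimulated A549 lung adenocarcinoma cells; signal is phosphorylated S6 detected by cytoblot immunostaining with HRP secondary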

molecule	obs value
C=CCC(OC(C)=O)[C@@H]1[C@@H](N(Cc2cccc3ccccc23)C(=O)c2ccc(-c3ccccc3)cc2)c2cc(OCCCO)ccc2N1C(=O)c1ccc(-c2ccccc2)cc1 (stereo partly drawn)	-0.0997

Req: Fill in: z-score of CC(C)CCC[C@@H](C)[C@H]1CC[C@@]2(C)C3=C(CC[C@]12C)[C@@]1(C)CC[C@H](OC(=O)c2ccccc2)C(C)(C)C1CC3 (stereo partly drawn) is ___
Resp: 1.64

Req: Fill in: z-score of CC(C)[C@H]1NC(=O)[C@@]23C(=O)N[C@@H](Cc4ccccc4)C2[C@H](C)[C@@]2(C)O[C@H]2C3/C=C/CCC/C=C/CNC(=O)[C@H](Cc2ccccc2)NC1=O (stereo partly drawn) is ___
Resp: 0.352

----------
assay: small-molecule microarray binders of probe aXIP, primary screen, biochemical, NeuroSMM set, 635/667 nm fluorescence (AID 1119); settings: higher = more signal, called active from +8 up or from −8 down;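 further: probe is the protein aXip251-270 applied at 1 µg/mL to compound-printed slides; binding of probe to printed compounds measured as 667 nm fluorescence plus signal to noise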
Kind request: treat 0.4 as inclusive, so composite Z-score at 0.4 or higher is T, anything lower is F.

molecule	class assignment
Cc1ccc(S[C@]2(C(=O)NCC(C)C)CC(=O)N(C3Cc4ccccc4C3)[C@@H]2c2ccc(CO)cc2I)cc1	F
CO[C@H]1O[C@H](CO)[C@@H](OC(=O)Nc2cccc(F)c2)[C@H](OC(=O)Nc2ccccc2-c2ccccc2)[C@H]1OC(=O)Nc1ccccc1-c1ccccc1	T
CCOC(=O)C1=C[C@@H](c2ccccc2)N(S(=O)(=O)c2ccc(C)cc2)[C@H]1c1ccccc1	F
COCCOC(=O)N1C(=O)[C@@]2(c3cc(C#CCNC(N)=O)ccc31)[C@H](c1ccc(OCCO)cc1)N1[C@H](c3ccccc3)[C@H](c3ccccc3)OC(=O)[C@H]1[C@@H]2C(=O)NC[C@H](O)c1ccccc1	F

Req: Does the reported composite Z-score for Cc1cccc([C@H]2C[C@H]3C(I)=C[C@@H]2C(=O)[C@]32CO2)c1 fall at or above the 0.4 mark?
Resp: T

Req: Item C=C(COC)C(=O)CC[C@H](OC(C)=O)c1ccc(OCCO)cc1 with composite Z-score of 0.4 or above?
Resp: F

Req: State whether the measured composite Z-score reaches 0.4, counting equality as reaching it, for O=C1C2C=CC(C(O)c3cccc(O)c3)N(Nc3ccccc3)C2C(=O)N1c1ccccc1 (configuration not stated)
Resp: F

----------
system: PRMT1 (protein arginine N-methyltransferase 1); assay: PRMT1 binders on small-molecule microarrays, primary screen, biochemical, small-molecule microarray, 635 nm fluorescence (AID 1088); details: small-molecule microarray binding, higher = more signal;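 further: binding of Prmt1 protein to compounds spotted on small-molecule microarray slides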
metric: composite z-score
Answer as a number with no unit attached.

structure	composite z-score
COCCOC(=O)N1C(=O)[C@@]2(c3cc(C#CCC(C(=O)OC)C(=O)OC)ccc31)[C@H](c1ccc(O)cc1)N1[C@H](c3ccccc3)[C@H](c3ccccc3)OC(=O)[C@H]1[C@@H]2C(=O)NC[C@H](O)c1ccccc1	1.38
C=C[C@H](C)[C@H](OC(=O)Nc1ccc(OC)cc1)c1ccc(OCCO)cc1	-0.173
Cc1ccc(S[C@]2(C(=O)NC(C)C)CC(=O)N(C(C)C)[C@@H]2c2ccc(CO)cc2I)cc1	0.841

Note: attention shifts to another entry.
Req: What value of composite z-score has been reported for the following compound? C=C(CCCC)C(=O)CC[C@H](OC(=O)c1ccccc1-c1ccccc1C(=O)O)c1ccccc1OCCO
Resp: 0.774

----------
experiment: basal MM1S mitochondrial membrane potential changes, profiling panel, cell-based, JC-1 fluorescence, 24 h, 100 nL compound (AID 1170); details: higher = more signal; further: test concentration not given here
metric: z-score
No unit in the answer, please; the number alone is enough.

Worked cases, answers included:
compound	obs value
C[C@]1(C(=O)O)c2ccccc2C(=O)N(Cc2ccc(OC(F)(F)F)cc2)[C@H]1c1ccc(CO)cc1	0.057
C=CCOC(=O)[C@H]1[C@@H]2C(=O)O[C@@H](c3ccccc3)[C@@H](c3ccccc3)N2[C@@H](c2ccc(OCCOC(=O)[C@H]3C[C@H]4C(=O)N[C@@H](CCCCNC(C)=O)C(=O)N4[C@H]3c3cccc(OCCO)c3)cc2)[C@]12C(=O)Nc1ccc(I)cc12	-0.519

Req: Give its z-score value. Item: C[C@]1(C(=O)NCC(F)(F)F)c2ccccc2C(=O)N(Cc2ccccc2)[C@H]1c1ccc(CO)cc1
Resp: -1.07

Req: Please give the measured z-score for this compound: CC(C)C(CO)N1C(=O)[C@@H]2[C@H]3C(=O)OCC=C[C@H]3OC23C=CCN(C(C)(C)C)C(=O)[C@@H]13 (stereo partly drawn)
Resp: 0.264

----------
assay: RPMI8226 myeloma cell viability, profiling panel, resazurin fluorescence, basal, 24 h, PK04 Diversity Set (AID 1180); details: higher = more signal;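 further: RPMI8826 multiple myeloma cell line at 5000 cells per well; test concentration not given here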
metric: z-score
Lab note: jot down the number only; don't add units.

Study these solved cases before continuing.
compound	metric	obs value
CO[C@H]1O[C@H](CO)[C@@H](OC(=O)c2ccc(Br)cc2)[C@@H]2OC(=O)[C@H](Cc3ccccc3)C/C=C/C[C@@H](Cc3ccccc3)C(=O)O[C@@H]12	z-score	0.425
O=c1cccc(-c2ccc(F)cc2)o1	z-score	-0.739
Cc1nc2cc(Br)ccc2c(=O)n1Cc1cccc(O)c1	z-score	-0.505
COc1ccc(C(O)C2C=CC3C(=O)N(c4ccccc4)C(=O)C3N2Nc2ccc(C(C)C)cc2)c2ccccc12 (centres undefined)	z-score	-0.208
CC(C)c1ccc(NN2C(C(O)Cc3ccccc3)C=CC3C(=O)N(c4ccccc4)C(=O)C32)cc1 (centres undefined)	z-score	-0.807
COCCOC(=O)N1C(=O)[C@@]2(c3cc(C#CCC(C(=O)OC)C(=O)OC)ccc31)[C@H](c1ccc(O)cc1)N1[C@H](c3ccccc3)[C@H](c3ccccc3)OC(=O)[C@H]1[C@@H]2C(=O)NC[C@H](O)c1ccccc1	z-score	-2.51
C=C(/C(=C/C[C@H](OC(=O)c1ccncc1)c1ccccc1OCCO)c1cnc2ccccc2c1)C(C)C	z-score	0.262
C=CCN1C(=O)[C@@]2(O[C@@H](CCO)[C@H]([Si](C)(C)c3ccc(OC)cc3)[C@H]2C)c2cc(N3CCOC3=O)ccc21	z-score	-6.2
O=C1C2C=CC(C(O)c3ccc(I)cc3)N(Nc3ccccc3)C2C(=O)N1c1ccccc1 (centres undefined)	z-score	-0.312
O=C1N[C@@H](Cc2ccccc2)C(=O)N2[C@@H]1C[C@@H](C(=O)O)[C@H]2c1ccc(O)cc1	z-score	0.0674

Req: Form field: reported z-score of O=C(CS)NCCCCCCNC(=O)[C@@H]1C[C@@H]2C(=O)NCC(=O)N2[C@@H]1c1ccc(O)cc1
Resp: 0.0464

Req: Quick one: z-score of CC(C)CNC(=O)[C@@H]1c2ccccc2C(=O)N(C2CCCCC2)[C@H]1c1ccc(CO)cc1 ?
Resp: 1.34

Req: Look up z-score: C=CCC(OC(C)=O)[C@@H]1[C@@H](N(Cc2cc3ccccc3o2)C(=O)c2ccc(-c3ccccc3)cc2)c2cc(OCCCO)ccc2N1C(=O)Cc1ccc(OC)cc1 (some centres undefined)
Resp: -0.209

Req: Quick one: z-score for COC(=O)[C@@]1(Cc2ccc(F)cc2)[C@H]2c3cc(C(=O)N(C)C)n(Cc4ccc(O)c(OC)c4)c3C[C@H]2CN1C(=O)c1ccccc1 ?
Resp: -0.997

Req: # input compound: C=C[C@@H](C)[C@@H](OC(=O)Nc1ccc(SC)cc1)c1ccc(OCCO)cc1 ; wanted: its z-score
Resp: 0.0167

----------
molecular target: Neurogenic locus notch homolog protein 3 (Homo sapiens) (UniProt Q9UM47); assay: NOTCH3 binders on small-molecule microarray, primary screen, biochemical, 635/667 nm fluorescence (AID 1096); settings: NOTCH3 binding, 635 nm fluorescence, higher = more signal
Sequence (Q9UM47 whole entry, looked up): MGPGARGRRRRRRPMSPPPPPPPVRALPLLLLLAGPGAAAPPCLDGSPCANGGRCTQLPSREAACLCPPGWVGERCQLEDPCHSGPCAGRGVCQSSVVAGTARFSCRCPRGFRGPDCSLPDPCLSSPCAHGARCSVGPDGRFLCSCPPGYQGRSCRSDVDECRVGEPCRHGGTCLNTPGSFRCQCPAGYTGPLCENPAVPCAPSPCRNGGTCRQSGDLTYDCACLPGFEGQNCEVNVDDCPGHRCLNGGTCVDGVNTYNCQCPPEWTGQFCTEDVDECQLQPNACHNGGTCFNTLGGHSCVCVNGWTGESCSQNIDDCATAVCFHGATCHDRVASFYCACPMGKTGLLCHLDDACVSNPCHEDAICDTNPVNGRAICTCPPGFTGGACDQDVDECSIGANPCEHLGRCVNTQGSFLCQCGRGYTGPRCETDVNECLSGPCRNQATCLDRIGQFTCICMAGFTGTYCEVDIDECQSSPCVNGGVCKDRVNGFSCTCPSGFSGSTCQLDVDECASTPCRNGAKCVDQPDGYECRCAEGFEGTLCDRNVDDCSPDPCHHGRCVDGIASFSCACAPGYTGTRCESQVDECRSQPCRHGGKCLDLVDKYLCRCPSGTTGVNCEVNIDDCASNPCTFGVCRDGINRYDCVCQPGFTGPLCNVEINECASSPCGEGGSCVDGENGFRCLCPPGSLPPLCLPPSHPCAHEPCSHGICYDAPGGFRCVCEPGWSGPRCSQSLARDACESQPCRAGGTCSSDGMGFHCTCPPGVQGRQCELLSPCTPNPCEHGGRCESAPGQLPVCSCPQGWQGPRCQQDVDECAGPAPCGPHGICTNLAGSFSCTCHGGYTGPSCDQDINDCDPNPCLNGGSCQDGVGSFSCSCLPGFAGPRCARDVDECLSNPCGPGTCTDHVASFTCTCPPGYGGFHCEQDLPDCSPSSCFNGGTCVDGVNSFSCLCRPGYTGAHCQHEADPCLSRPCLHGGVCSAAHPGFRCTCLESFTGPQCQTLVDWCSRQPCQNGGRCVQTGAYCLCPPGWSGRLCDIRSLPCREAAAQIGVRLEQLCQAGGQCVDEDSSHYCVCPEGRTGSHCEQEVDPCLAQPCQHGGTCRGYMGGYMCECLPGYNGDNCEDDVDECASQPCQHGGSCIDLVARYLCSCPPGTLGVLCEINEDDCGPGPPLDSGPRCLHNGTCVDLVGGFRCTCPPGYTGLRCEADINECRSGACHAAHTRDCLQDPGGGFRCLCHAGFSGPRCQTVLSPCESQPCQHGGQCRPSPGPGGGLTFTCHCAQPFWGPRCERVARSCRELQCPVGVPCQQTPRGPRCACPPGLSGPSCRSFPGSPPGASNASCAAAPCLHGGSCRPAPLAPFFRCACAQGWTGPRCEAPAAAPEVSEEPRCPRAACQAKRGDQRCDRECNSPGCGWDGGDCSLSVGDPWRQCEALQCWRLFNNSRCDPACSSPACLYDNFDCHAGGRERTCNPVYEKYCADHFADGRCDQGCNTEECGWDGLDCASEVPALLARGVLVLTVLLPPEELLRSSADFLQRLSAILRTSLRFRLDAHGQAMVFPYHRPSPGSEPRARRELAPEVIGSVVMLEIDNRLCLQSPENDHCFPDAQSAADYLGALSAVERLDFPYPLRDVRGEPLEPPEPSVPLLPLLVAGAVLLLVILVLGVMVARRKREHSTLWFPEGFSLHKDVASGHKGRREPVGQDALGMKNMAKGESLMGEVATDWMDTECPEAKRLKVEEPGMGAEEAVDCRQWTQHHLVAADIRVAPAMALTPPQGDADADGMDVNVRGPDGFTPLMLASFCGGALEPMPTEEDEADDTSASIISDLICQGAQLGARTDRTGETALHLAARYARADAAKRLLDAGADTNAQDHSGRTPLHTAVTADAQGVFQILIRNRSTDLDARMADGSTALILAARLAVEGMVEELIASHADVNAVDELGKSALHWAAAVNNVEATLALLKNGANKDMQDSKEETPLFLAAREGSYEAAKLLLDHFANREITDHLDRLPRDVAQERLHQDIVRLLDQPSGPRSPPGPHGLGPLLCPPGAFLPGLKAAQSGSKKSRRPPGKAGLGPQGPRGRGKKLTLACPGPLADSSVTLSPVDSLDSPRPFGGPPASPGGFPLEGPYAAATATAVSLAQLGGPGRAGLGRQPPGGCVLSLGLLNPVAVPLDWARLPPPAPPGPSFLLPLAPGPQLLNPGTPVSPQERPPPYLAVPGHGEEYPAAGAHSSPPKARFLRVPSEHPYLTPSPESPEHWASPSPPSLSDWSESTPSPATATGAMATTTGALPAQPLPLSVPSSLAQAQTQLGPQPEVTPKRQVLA
metric: composite z-score
# print the numeric value only

Some entries whose results are on file:
structure	target system	composite z-score
COc1ccc([Si](C)(C)[C@@H]2[C@@H](CC(=O)N3Cc4ccccc4C[C@H]3CO)O[C@]3(C(=O)N(c4ccccc4)c4ccccc43)[C@H]2C)cc1	Neurogenic locus notch homolog protein 3 (Homo sapiens) (UniProt Q9UM47)	1.05
COCCOC(=O)N1C(=O)[C@@]2(c3cc(C#Cc4ccc(OC)cc4)ccc31)[C@H](C(=O)NC[C@H](O)c1ccccc1)[C@H]1C(=O)O[C@H](c3ccccc3)[C@H](c3ccccc3)N1[C@@H]2c1ccc(OCCO)cc1	Neurogenic locus notch homolog protein 3 (Homo sapiens) (UniProt Q9UM47)	1.04

With those in mind, consider the next compound.
Req: Need composite z-score, item COCCOC(=O)N1C(=O)[C@@]2(c3cc(C#CCC(C(=O)OC)C(=O)OC)ccc31)[C@H](C(=O)NC[C@H](O)c1ccccc1)[C@H]1C(=O)O[C@H](c3ccccc3)[C@H](c3ccccc3)N1[C@@H]2c1ccc(OCCO)cc1
Resp: 1.04
